Assay Method Text: Mouse plasma stability
Type: in vitro ADME
Condition: read-out: Stability Mouse plasma t1/2
Endpoint: half-life

Qu. # query: half-life of entry C[C@@H]1C[C@@H](NC(=O)c2nnc(-c3cccc(C#N)c3)o2)CN1C#N
Ans. > 33.3 h

====

Target Or Test System: UniProtKB P09936
Sequence (P09936 1-223): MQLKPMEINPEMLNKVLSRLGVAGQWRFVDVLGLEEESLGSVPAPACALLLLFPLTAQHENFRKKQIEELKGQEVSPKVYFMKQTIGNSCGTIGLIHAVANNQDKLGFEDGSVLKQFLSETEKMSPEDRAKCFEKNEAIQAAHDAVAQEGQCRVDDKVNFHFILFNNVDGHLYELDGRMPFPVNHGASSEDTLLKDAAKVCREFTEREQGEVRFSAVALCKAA
Assay Method Text: DUB biochemical IC50 assay, UCHL1
Endpoint: IC50

Below, 3 molecules whose answers are already recorded.
COc1ccc(C#N)cc1-c1nnc(C(=O)N[C@@H]2C[C@@H](C)N(C#N)C2)o1: > 300 µM
N#CN1CCC(C(=O)Nc2nnc(-c3ccccc3)s2)C1 (stereo not shown) [F, reference compound]: 3.2 µM
COC[C@@H]1C[C@@H](NC(=O)c2nnc(-c3cc(C#N)ccc3OC)o2)CN1C#N: > 300 µM

Qu. # query: IC50 of entry C[C@@H]1C[C@@H](NC(=O)c2nnc(-c3cccc(C#N)c3)o2)CN1C#N
Ans. > 300 µM
